# Measurement Target: T1, HLA-A*6802 (human)
# T1 construct: purified HLA class I molecule
# Protocol Description: competition for purified HLA vs 125I-labelled probe peptide, gel filtration
Value Type: IC50 (nM)
Answers are plain numbers, in nM.

{"columns": ["Binder", "Value Type", "Measurement"],
 "data": [
  ["YLIMVKCWMV (analog of Her2/neu.952 (10-mer)) [Her2/neu.952.L2V10]", "IC50", 84],
  ["KTFGSLAFV (analog of Her2/neu.369) [Her2/neu.369.T2V9]", "IC50", 17]
]}

[ask] Which IC50 value belongs to SLISAVVGV (analog of Her2/neu.653) [Her2/neu.653.L2V9] ?
[reply] 110
